Sourced from ChEMBL document CHEMBL3232995

Tested on: DU-145
Assay: Antiproliferative activity against human DU145 cells under hypoxia condition assessed as growth inhibition at 3 to 30 uM after 24 hrs by MTT assay
Type: functional, cell-based
The source made the active and inactive calls. The rule behind the calls is not given here.
quantity: growth inhibition (GI)

C/C(=C\CC/C(C)=C/CCc1ccoc1)CC/C=C(\C)CC/C=C(\C)CCc1cn(CCOCCOCCNC(=O)CSC[C@H](NC(=O)c2ccc(C(=O)c3ccccc3)cc2)C(=O)NCCOCCOCCOCCn2cc(CNC(=O)CCCC[C@@H]3SC[C@@H]4NC(=O)N[C@@H]43)nn2)nn1 | Active
C/C(=C\CC/C(C)=C/CCc1ccoc1)CC/C=C(\C)CC/C=C(\C)CCc1cn(CCCCCNC(=O)CSC[C@H](NC(=O)c2ccc(C(=O)c3ccccc3)cc2)C(=O)NCCOCCOCCOCCn2cc(CNC(=O)CCCC[C@@H]3SC[C@@H]4NC(=O)N[C@@H]43)nn2)nn1 | inactive
C/C(=C\CC/C(C)=C/CCc1ccoc1)CC/C=C(\C)CC/C=C(\C)CCc1cn(CCOCCOCCOCCNC(=O)CSC[C@H](NC(=O)c2ccc(C(=O)c3ccccc3)cc2)C(=O)NCCOCCOCCOCCn2cc(CNC(=O)CCCC[C@@H]3SC[C@@H]4NC(=O)N[C@@H]43)nn2)nn1 | Active
C/C(=C\CC/C(C)=C/CCc1ccoc1)CC/C=C(\C)CC/C=C(\C)CCc1cn(CCCNC(=O)CSC[C@H](NC(=O)c2ccc(C(=O)c3ccccc3)cc2)C(=O)NCCOCCOCCOCCn2cc(CNC(=O)CCCC[C@@H]3SC[C@@H]4NC(=O)N[C@@H]43)nn2)nn1 | inactive
